Reference source: patent US7371758B2

# Test system: E. coli
# procedure.text: Antibacterial activity, bacterial growth inhibition, E. coli
# Format: cell-based
# study.conditions: Escherichia coli, 20 hours incubation, 600 nm
pIC50: −log10 of the molar value.

>  <compound>
Nc1nc(N)c(-c2cccc(Cl)c2)c(CCOCCCOc2ccccc2)n1

>  <pIC50>
< 4.30

$$$$
>  <compound>
COc1cc(Cc2cnc(N)nc2N)cc(OC)c1OC [Trimethoprim, reference compound]

>  <pIC50>
5.64

$$$$
>  <compound>
CCCCCCc1nc(N)nc(N)c1-c1ccccc1

>  <pIC50>
< 5.00

$$$$

* * *

# measured.on: PfDHFR N51I + C59R + S108N + I164L (Plasmodium falciparum, UniProt A7UD81, C59R/I164L/N51I/S108N)
# Sequence (A7UD81 whole entry N51I/C59R/S108N/I164L): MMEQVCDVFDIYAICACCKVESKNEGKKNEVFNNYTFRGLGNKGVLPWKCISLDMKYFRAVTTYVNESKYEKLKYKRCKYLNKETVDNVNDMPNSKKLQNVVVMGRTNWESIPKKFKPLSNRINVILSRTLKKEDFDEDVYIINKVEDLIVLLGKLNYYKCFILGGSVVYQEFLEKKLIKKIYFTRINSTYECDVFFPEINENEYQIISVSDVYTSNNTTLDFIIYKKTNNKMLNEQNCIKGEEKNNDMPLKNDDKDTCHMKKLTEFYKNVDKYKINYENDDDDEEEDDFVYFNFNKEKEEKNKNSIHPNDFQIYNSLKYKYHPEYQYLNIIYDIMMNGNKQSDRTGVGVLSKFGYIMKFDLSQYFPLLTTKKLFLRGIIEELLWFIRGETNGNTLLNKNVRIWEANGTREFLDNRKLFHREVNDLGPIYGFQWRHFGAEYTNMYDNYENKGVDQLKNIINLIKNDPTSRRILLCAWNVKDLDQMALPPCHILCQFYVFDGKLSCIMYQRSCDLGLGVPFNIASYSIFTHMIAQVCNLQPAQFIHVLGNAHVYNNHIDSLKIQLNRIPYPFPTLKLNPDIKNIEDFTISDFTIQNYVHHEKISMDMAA
# procedure.text: PfDHFR enzyme inhibition constants (Ki), quadruple mutant N51I + C59R + S108N + I164L
pKi: −log10 of the molar value.

>  <molecule>
COc1ccc(CCCc2nc(N)nc(N)c2-c2cccc(Cl)c2)cc1 [Example 5]

>  <pKi>
8.70

$$$$
>  <molecule>
CCCCCCc1nc(N)nc(N)c1-c1ccccc1 [Example 1]

>  <pKi>
8.85

$$$$
>  <molecule>
COC(=O)CCCc1nc(N)nc(N)c1-c1ccccc1 [Example 3]

>  <pKi>
7.62

$$$$
>  <molecule>
COC(=O)CCCc1nc(N)nc(N)c1-c1cccc(Cl)c1 [Example 6]

>  <pKi>
8.57

$$$$
>  <molecule>
Nc1nc(N)c(-c2ccccc2)c(CCCc2ccccc2)n1 [Example 2]

>  <pKi>
8.33

$$$$
>  <molecule>
Nc1nc(N)c(-c2cccc(Cl)c2)c(CCCc2ccccc2)n1 [Example 4]

>  <pKi>
8.70

$$$$
>  <molecule>
Nc1nc(N)c(-c2cccc(Cl)c2)c(CCOCCCOc2ccccc2)n1 [Example 7]

>  <pKi>
8.77

$$$$
